Below: a set of entries, each annotated with reported Inhibition of activity of HCV RNA polymerase (%).
Target: HCV RNA polymerase (RNA dependent RNA polymerase, NS5B) (Hepatitis C virus genotype 1b, UniProt P26663)
Construct: the NS5B region (1773 bps) was amplified by PCR and cloned into pVLHIS, a baculovirus transfer vector; (His)6; made in house; host or cells: Sf9 insect cells (recombinant baculovirus, pVLHIS-NS5B)
Sequence (P26663 2420-3010): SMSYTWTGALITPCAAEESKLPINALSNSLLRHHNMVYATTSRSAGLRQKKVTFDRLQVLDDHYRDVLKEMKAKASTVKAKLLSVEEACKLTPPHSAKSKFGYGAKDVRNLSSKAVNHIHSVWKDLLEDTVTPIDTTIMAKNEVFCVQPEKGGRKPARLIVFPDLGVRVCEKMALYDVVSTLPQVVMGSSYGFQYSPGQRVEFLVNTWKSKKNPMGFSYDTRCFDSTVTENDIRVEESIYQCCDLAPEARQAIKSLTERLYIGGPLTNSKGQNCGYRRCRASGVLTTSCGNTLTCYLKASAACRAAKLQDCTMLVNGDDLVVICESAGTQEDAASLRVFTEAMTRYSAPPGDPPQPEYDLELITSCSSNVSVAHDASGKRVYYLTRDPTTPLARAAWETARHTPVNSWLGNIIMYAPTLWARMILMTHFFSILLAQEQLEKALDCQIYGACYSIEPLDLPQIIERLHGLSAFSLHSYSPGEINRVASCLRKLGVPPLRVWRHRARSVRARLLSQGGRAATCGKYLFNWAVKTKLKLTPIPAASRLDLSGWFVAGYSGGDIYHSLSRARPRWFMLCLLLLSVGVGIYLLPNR
Experiment: Inhibitory effect on activity of recombinant HCV RNA polymerase (NS5B) in vitro
Type: biochemical, HCV-1b type HCV
Conditions: 1 μg/mL
Procedure: Test of Inhibitory Effect on Activity of HCV RNA Polymerase (RNA Dependent RNA Polymerase, NS5B) in vitro […] In vitro inhibitory activity of the compounds of the present invention on recombinant HCV RNA polymerase was measured as follows. A streptavidin-coated well plate was prepared suitable for the sample to be examined. […] The optical density (OD) was measured using an ELISA reader (Bio-Tek instrument Co.) at 405 nm. […]
Write the value in % as a bare number.

Take a look at these entries with their results.
[
  {
    "Compound": "CSc1nc(Nc2ccc(N3CCOCC3)cc2)cc(N2CCN(C(=O)OC(C)C)CC2)n1 [Example 1]",
    "Measured Number": 81
  },
  {
    "Compound": "CSc1nc(Nc2ccc(N3CCOCC3)cc2)cc(N2CCN(C(=O)c3ccncc3)CC2)n1 [Example 3]",
    "Measured Number": 73
  },
  {
    "Compound": "CSc1nc(Nc2ccc(N3CCOCC3)cc2)cc(N2CCN(CC(=O)O)CC2)n1 [Example 4]",
    "Measured Number": 65
  }
]

Here's the next entry for you.
## Task Reported Inhibition of activity of HCV RNA polymerase (%) for CSc1nc(Nc2ccc(N3CCOCC3)cc2)cc(N2CCN(C(=O)c3cccnc3)CC2)n1 [Example 2] : what is it?
## Result 62

* * *

Biological target: HCV RNA polymerase (RNA dependent RNA polymerase, NS5B) (Hepatitis C virus genotype 1b, UniProt P26663)
Construct: the NS5B region (1773 bps) was amplified by PCR and cloned into pVLHIS, a baculovirus transfer vector; (His)6; made in house; host or cells: Sf9 insect cells (recombinant baculovirus, pVLHIS-NS5B)
Test: Inhibitory effect on activity of recombinant HCV RNA polymerase (NS5B) in vitro
Format: biochemical, HCV-1b type HCV
Conditions: 0.1 μg/mL
Below: a set of entries, each annotated with reported Inhibition of activity of HCV RNA polymerase (%).
Write the value in % as a bare number.

[
  {
    "Line Notation": "CSc1nc(Nc2ccc(N3CCOCC3)cc2)cc(N2CCN(C(=O)c3cccnc3)CC2)n1",
    "Measured Number": 30
  }
]

## Task Reported Inhibition of activity of HCV RNA polymerase (%) for CSc1nc(Nc2ccc(N3CCOCC3)cc2)cc(N2CCN(CC(=O)O)CC2)n1 : what is it?
## Result 52

## Task Reported Inhibition of activity of HCV RNA polymerase (%) for CSc1nc(Nc2ccc(N3CCOCC3)cc2)cc(N2CCN(C(=O)c3ccncc3)CC2)n1 : what is it?
## Result 53

## Task Reported Inhibition of activity of HCV RNA polymerase (%) for CSc1nc(Nc2ccc(N3CCOCC3)cc2)cc(N2CCN(C(=O)OC(C)C)CC2)n1 : what is it?
## Result 55

* * *

Target: HCV RNA polymerase (RNA dependent RNA polymerase, NS5B) (Hepatitis C virus genotype 1b, UniProt P26663)
Construct: the NS5B region (1773 bps) was amplified by PCR and cloned into pVLHIS, a baculovirus transfer vector; (His)6; made in house; host or cells: Sf9 insect cells (recombinant baculovirus, pVLHIS-NS5B)
Assay: Inhibitory effect on activity of recombinant HCV RNA polymerase (NS5B) in vitro
Assay type: biochemical, HCV-1b type HCV
Conditions: 0.01 μg/mL
Below: a set of entries, each annotated with reported Inhibition of activity of HCV RNA polymerase (%).
Write the value in % as a bare number.

[
  {
    "Line Notation": "CSc1nc(Nc2ccc(N3CCOCC3)cc2)cc(N2CCN(C(=O)c3ccncc3)CC2)n1",
    "Measured Number": 23
  },
  {
    "Line Notation": "CSc1nc(Nc2ccc(N3CCOCC3)cc2)cc(N2CCN(C(=O)OC(C)C)CC2)n1",
    "Measured Number": 29
  },
  {
    "Line Notation": "CSc1nc(Nc2ccc(N3CCOCC3)cc2)cc(N2CCN(C(=O)c3cccnc3)CC2)n1",
    "Measured Number": 15
  }
]

Here's the next entry for you.
## Task Reported Inhibition of activity of HCV RNA polymerase (%) for CSc1nc(Nc2ccc(N3CCOCC3)cc2)cc(N2CCN(CC(=O)O)CC2)n1 : what is it?
## Result 27

* * *

Biological target: HCV RNA polymerase (RNA dependent RNA polymerase, NS5B) (Hepatitis C virus genotype 1b)
Construct: the NS5B region (1773 bps) was amplified by PCR and cloned into pVLHIS, a baculovirus transfer vector; (His)6; made in house; host or cells: Sf9 insect cells (recombinant baculovirus, pVLHIS-NS5B)
Experiment: Inhibitory effect on activity of recombinant HCV RNA polymerase (NS5B) in vitro
Assay type: biochemical, HCV-1b type HCV
Settings: 10 μg/mL
Measured Property: Inhibition of activity of HCV RNA polymerase (%)
Write the numeric value and follow it with the unit.

Take a look at these entries with their results.
[
  {
    "Compound": "CSc1nc(Nc2ccc(N3CCOCC3)cc2)cc(N2CCN(CC(=O)O)CC2)n1 [Example 4]",
    "Result": "94%"
  },
  {
    "Compound": "CSc1nc(Nc2ccc(N3CCOCC3)cc2)cc(N2CCN(C(=O)c3ccncc3)CC2)n1 [Example 3]",
    "Result": "93%"
  },
  {
    "Compound": "CSc1nc(Nc2ccc(N3CCOCC3)cc2)cc(N2CCN(C(=O)OC(C)C)CC2)n1 [Example 1]",
    "Result": "99%"
  }
]

Here's the next entry for you.
## Task Reported Inhibition of activity of HCV RNA polymerase (%) for CSc1nc(Nc2ccc(N3CCOCC3)cc2)cc(N2CCN(C(=O)c3cccnc3)CC2)n1 [Example 2] : what is it?
## Result 98%
